target: HLA-A*11:01; assay: IEDB peptide-MHC binding, purified MHC/competitive/radioactivity; filed as Kd, often an IC50 or EC50 that approximates it; bounds were set here for any values at or beyond the usual limits of such assays; conditions: source organism: Mammarenavirus lassaense

{"columns": ["biosequence", "measured target", "Kd"],
 "data": [
  ["TCQGSDDIKK", "HLA-A*11:01", "13 µM"]
]}

====

molecular target: HLA-A*33:01; assay: IEDB peptide-MHC binding, purified MHC/competitive/radioactivity; filed as Kd, often an IC50 or EC50 that approximates it; bounds were set here for any values at or beyond the usual limits of such assays; conditions: source organism: Mammarenavirus juninense

{"columns": ["biosequence", "measured target", "Kd"],
 "data": [
  ["SKQYIHCFRK", "HLA-A*33:01", "≥ 26.1 µM"]
]}

====

biological target: HLA-B*39:01; assay: IEDB peptide-MHC binding, purified MHC/competitive/fluorescence; filed as Kd, often an IC50 or EC50 that approximates it; bounds were set here for any values at or beyond the usual limits of such assays; conditions: source organism: Choclo virus
pKd: −log10 of the molar value.
measure: pKd

{"columns": ["biosequence", "val"],
 "data": [
  ["KACDLAMCY", "≤ 4.70"]
]}

====

target: HLA-A*02:02; assay: IEDB peptide-MHC binding, purified MHC/competitive/radioactivity; filed as Kd, often an IC50 or EC50 that approximates it; bounds were set here for any values at or beyond the usual limits of such assays; conditions: source organism: Mammarenavirus brazilense
measure: Kd (nM)

{"columns": ["biosequence", "measure", "val"],
 "data": [
  ["LSNCVHPAV", "Kd", 427]
]}

====

molecular target: HLA-B*07:02; assay: IEDB peptide-MHC binding, purified MHC/direct/fluorescence; filed as Kd, often an IC50 or EC50 that approximates it; bounds were set here for any values at or beyond the usual limits of such assays; conditions: source organism: Mammarenavirus brazilense
measure: Kd

{"columns": ["biosequence", "measured target", "val"],
 "data": [
  ["EFKSRFFVM", "HLA-B*07:02", "≥ 20 µM"]
]}

====

Catalogue of Kd values
molecular target: HLA-A*02:03; experiment: IEDB peptide-MHC binding, purified MHC/competitive/radioactivity; filed as Kd, often an IC50 or EC50 that approximates it; bounds were set here for any values at or beyond the usual limits of such assays; settings: source organism: Lassa virus Josiah
measure: Kd (µM)

{"columns": ["biosequence", "measured target", "measure", "val"],
 "data": [
  ["FSTSFYLISI", "HLA-A*02:03", "Kd", 0.0526],
  ["RLLGTFTWT", "HLA-A*02:03", "Kd", 0.104]
]}

====

molecular target: HLA-A*33:01; experiment: IEDB peptide-MHC binding, purified MHC/competitive/radioactivity; filed as Kd, often an IC50 or EC50 that approximates it; bounds were set here for any values at or beyond the usual limits of such assays; details: source organism: Vaccinia virus WR
Each item that follows carries a reported log10 of Kd.
measure: log10 of Kd (log10 of the value in µM)

{"columns": ["biosequence", "val"],
 "data": [
  ["MSRGYFEHMK", 0.34],
  ["FMVSVSDFR", -0.66],
  ["GMNDYLGIFK", 0.78],
  ["EVRIPVDLVK", 1.23],
  ["LFSKNILKY", 0.94],
  ["SVSAKQLRTR", 0.75],
  ["DLTQIFEVY", -0.03],
  ["TTYDFLARK", 0.93],
  ["ATDYIASGQR", 0.32],
  ["TTLLNETAK", 0.91],
  ["VFKGFSDKVR", -0.03],
  ["LARRPTPKK", 1.29],
  ["MSRVRISLIY", 1.03],
  ["SVSIILANER", 0.21],
  ["LMWNKQFIK", -1.50],
  ["VSDLYTSMR", 0.62],
  ["QLLKILDNLR", 0.75],
  ["TIISEEYLSK", 0.95],
  ["IILANERYR", 0.44],
  ["NVTLFYCDER", -0.09],
  ["RLFRSPQVK", 1.18],
  ["MTLDDLAIK", 0.37],
  ["LISLNSMYTR", -0.94],
  ["IPFIAYFVLM", 0.17],
  ["NMINKLYGY", 1.16],
  ["GVIDTMRIY", 1.06]
]}

====

biological target: HLA-B*08:01; assay: IEDB peptide-MHC binding, purified MHC/direct/fluorescence; filed as Kd, often an IC50 or EC50 that approximates it; bounds were set here for any values at or beyond the usual limits of such assays; conditions: source organism: Vibrio vulnificus CMCP6
measure: Kd

{"columns": ["biosequence", "measure", "val"],
 "data": [
  ["TTILGLLPM", "Kd", "≥ 20000 nM"],
  ["RGRKRFHTL", "Kd", "9 nM"]
]}

====

molecular target: HLA-B*08:03; assay: IEDB peptide-MHC binding, purified MHC/direct/fluorescence; filed as Kd, often an IC50 or EC50 that approximates it; bounds were set here for any values at or beyond the usual limits of such assays; details: source organism: Variola virus
pKd: −log10 of the molar value.

{"columns": ["biosequence", "pKd"],
 "data": [
  ["LLRDKDGVY", "≤ 4.70"]
]}

====

target: HLA-A*30:01; assay: IEDB peptide-MHC binding, purified MHC/competitive/radioactivity; filed as Kd, often an IC50 or EC50 that approximates it; bounds were set here for any values at or beyond the usual limits of such assays; settings: source organism: Vaccinia virus
pKd: −log10 of the molar value.
measure: pKd

{"columns": ["biosequence", "measured target", "val"],
 "data": [
  ["QTIVFIWFI", "HLA-A*30:01", 5.20]
]}

====

biological target: HLA-B*18:01; assay: IEDB peptide-MHC binding, purified MHC/direct/fluorescence; filed as Kd, often an IC50 or EC50 that approximates it; bounds were set here for any values at or beyond the usual limits of such assays; conditions: source organism: Yellow fever virus 17D

{"columns": ["biosequence", "measured target", "Kd"],
 "data": [
  ["VRGGMVAPL", "HLA-B*18:01", "≥ 20 µM"]
]}

====

target: HLA-A*31:01; assay: IEDB peptide-MHC binding, purified MHC/direct/fluorescence; filed as Kd, often an IC50 or EC50 that approximates it; bounds were set here for any values at or beyond the usual limits of such assays; conditions: source organism: Mammarenavirus brazilense

{"columns": ["biosequence", "measured target", "Kd"],
 "data": [
  ["EFKSRFFVM", "HLA-A*31:01", "≥ 20 µM"]
]}

====

biological target: HLA-B*35:01; experiment: IEDB peptide-MHC binding, purified MHC/competitive/radioactivity; filed as Kd, often an IC50 or EC50 that approximates it; bounds were set here for any values at or beyond the usual limits of such assays; details: source organism: Dengue virus 1 Brazil/97-11/1997
pKd: −log10 of the molar value.

{"columns": ["biosequence", "pKd"],
 "data": [
  ["LPEIEDEVF", 7.06],
  ["IANQAAILM", 6.99]
]}

====

molecular target: HLA-B*07:02; experiment: IEDB peptide-MHC binding, purified MHC/direct/fluorescence; filed as Kd, often an IC50 or EC50 that approximates it; bounds were set here for any values at or beyond the usual limits of such assays; details: source organism: Orthohantavirus hantanense
pKd: −log10 of the molar value.

{"columns": ["biosequence", "pKd"],
 "data": [
  ["IRKPKHLYV", "≤ 4.70"]
]}

====

molecular target: HLA-B*15:01; test: IEDB peptide-MHC binding, purified MHC/direct/fluorescence; filed as Kd, often an IC50 or EC50 that approximates it; bounds were set here for any values at or beyond the usual limits of such assays; details: source organism: Burkholderia mallei ATCC 23344

{"columns": ["biosequence", "Kd"],
 "data": [
  ["LARFPCNVI", "≥ 20 µM"]
]}

====

molecular target: HLA-B*57:01; assay: IEDB peptide-MHC binding, purified MHC/competitive/fluorescence; filed as Kd, often an IC50 or EC50 that approximates it; bounds were set here for any values at or beyond the usual limits of such assays; details: source organism: Vibrio cholerae V52
pKd: −log10 of the molar value.

{"columns": ["biosequence", "pKd"],
 "data": [
  ["TTILGLLPM", 5.45]
]}

====

molecular target: HLA-A*11:01; test: IEDB peptide-MHC binding, purified MHC/direct/fluorescence; filed as Kd, often an IC50 or EC50 that approximates it; bounds were set here for any values at or beyond the usual limits of such assays; settings: source organism: Francisella tularensis subsp. holarctica LVS

{"columns": ["biosequence", "Kd [nM]"],
 "data": [
  ["AIYKNTIAY", 23.9]
]}

The origin of these recorded values is the Immune Epitope Database (IEDB).
